Data provenance: patent US20050101595A1

TESTED_ON: CDK2/Cyclin A (Homo sapiens, UniProt P24941)
TEST_PROTOCOL: Inhibition of CDK2/Cyclin A Retinoblastoma Kinase Activity
REPORTED_CONDITIONS: apparent Ki, CDK2/proteolyzed cyclin A, Rb fragment substrate, 25 μM ATP
pKi: −log10 of the molar value. Where a name gives a salt, the structure may show the parent alone.
METRIC_NAME: pKi

Below, each entry is followed by its recorded pKi result.
COMPOUND	RECORDED_RESULT
Nc1nc(NC2CCN(S(=O)(=O)CCc3ccncc3)CC2)sc1C(=O)c1c(F)cccc1F	7.49
Nc1nc(NC2CCN(S(=O)(=O)c3cnc(Cl)nc3)CC2)sc1C(=O)c1c(F)cccc1F	9.57
CC(C)S(=O)(=O)c1csc(C(=O)N2CCC(Nc3nc(N)c(C(=O)c4c(F)cccc4F)s3)CC2)c1Cl	7.09

P: Nc1nc(NC2CCN(S(=O)(=O)CCCN3CCC3)CC2)sc1C(=O)c1c(F)cccc1F
Q: C[C@@H]1CN(c2ccc(S(=O)(=O)N3CCC(Nc4nc(N)c(C(=O)c5c(F)cccc5F)s4)CC3)cn2)C[C@H](C)N1 [Example G15, Trifluoroacetic Acid Salt]
Q: Compare P and Q by numeric pKi and name the larger one. Your answer should be the label of the entry you select.
Ans: Q
(Q: 9.14, P: 8.89)

P: CN1CCCC(Oc2ccc(S(=O)(=O)N3CCC(Nc4nc(N)c(C(=O)c5c(F)cccc5F)s4)CC3)cn2)C1 (centres unmarked) [Example H16, Hydrochloride]
Q: CN(CCS(=O)(=O)N1CCC(Nc2nc(N)c(C(=O)c3c(F)cccc3F)s2)CC1)c1ccccc1 [Example K37, Trifluoroacetic Acid Salt]
Q: Field: lower pKi | Options: P / Q Your answer should be the label of the entry you select.
Ans: Q

A: CN1CCC[C@H](COc2ccc(S(=O)(=O)N3CCC(Nc4nc(N)c(C(=O)c5c(F)cccc5F)s4)CC3)cn2)C1 [Example H11, Dihydrochloride]
B: COc1ccccc1/C=C\C(=O)N1CCC(Nc2nc(N)c(C(=O)c3c(F)cccc3F)s2)CC1
Q: Field: lower pKi | Options: A / B Your answer should be the label of the entry you select.
Ans: B
(B: 7.27, A: 8.16)

1: CC1CCN(CCCS(=O)(=O)N2CCC(Nc3nc(N)c(C(=O)c4c(F)cccc4F)s3)CC2)CC1
2: CS(=O)(=O)c1ccc(S(=O)(=O)N2CCC(Nc3nc(N)c(C(=O)c4c(F)cccc4F)s3)CC2)cc1
Q: Field: lower pKi | Options: 1 / 2 Your answer should be the label of the entry you select.
Ans: 1
(1: 7.96, 2: 9.43)

---

System: HCT-116 cell line
TEST_PROTOCOL: Inhibition of cell growth, tetrazolium salt (MTT) assay
Format: cell-based
REPORTED_CONDITIONS: Homo sapiens, HCT-116, 120 h, first HCT-116 column (c4); MTT, three to five days; read-out: HCT-116 IC50
pIC50: −log10 of the molar value. Where a name gives a salt, the structure may show the parent alone.
METRIC_NAME: pIC50

A: CC(CN(C)C)Oc1ccc(S(=O)(=O)N2CCC(Nc3nc(N)c(C(=O)c4c(F)cccc4F)s3)CC2)cn1 (racemic) [Example H13, Dihydrochloride]
B: COc1ccc(/C=C/C(=O)N2CCC(Nc3nc(N)c(C(=O)c4c(F)cccc4F)s3)CC2)c(Cl)c1OC
Q: Compare A and B by numeric pIC50 and name the larger one. Your answer should be the label of the entry you select.
Ans: A

A: Nc1nc(NC2CCN(S(=O)(=O)CCCN3CC=CC3)CC2)sc1C(=O)c1c(F)cccc1F
B: Nc1nc(NC2CCN(S(=O)(=O)c3ccc(N4CCCC(O)C4)nc3)CC2)sc1C(=O)c1c(F)cccc1F (stereo not drawn) [Example G12, Trifluoroacetic Acid Salt]
Q: Compare A and B by numeric pIC50 and name the larger one. Your answer should be the label of the entry you select.
Ans: A

A: Nc1nc(NC2CCN(S(=O)(=O)c3ccc(-c4ccccn4)s3)CC2)sc1C(=O)c1c(F)cccc1F
B: Nc1nc(NC2CCN(S(=O)(=O)CCNCc3cccc(F)c3F)CC2)sc1C(=O)c1c(F)cccc1F
Q: Field: lower pIC50 | Options: A / B Your answer should be the label of the entry you select.
Ans: A

A: Nc1nc(NC2CCN(C(=O)n3ccnc3)CC2)sc1C(=O)c1c(F)cccc1F
B: Nc1nc(NC2CCN(S(=O)(=O)c3ccc(N4CCC(O)CC4)nc3)CC2)sc1C(=O)c1c(F)cccc1F
C: Cc1ccccc1CNCCCS(=O)(=O)N1CCC(Nc2nc(N)c(C(=O)c3c(F)cccc3F)s2)CC1
Q: Ascending by pIC50, please: list the compounds accordingly. Put the labels in the requested order and list them out.
Ans: A, B, C
(A: 5.68, B: 6.77, C: 7.22)

---

# Lookup of reported HCT-116 % Inhibition at 0.25 μM keyed by entry
Tested on: HCT-116 cell line
TEST_PROTOCOL: Inhibition of cell growth, tetrazolium salt (MTT) assay
Format: cell-based
REPORTED_CONDITIONS: 0.25 μM compound; HCT-116; Table 4
Quick reminder: number only, in %, skip the unit.

Below, each entry is followed by its recorded HCT-116 % Inhibition at 0.25 μM result.
> print(dat)
                                   molecule  recorded.result
1  Nc1nc(NC2CCN(C(=O)OCc3ccc([N+](=O)[O-])cc3)CC2)sc1C(=O)c1c(F)cccc1F [Example Q85]               31
2  CC(=O)Oc1ccccc1C(=O)N1CCC(Nc2nc(N)c(C(=O)c3c(F)cccc3F)s2)CC1 [Example Q14]               45
3  Nc1nc(NC2CCN(C(=O)c3cccc(Cl)c3)CC2)sc1C(=O)c1c(F)cccc1F [Example Q19]               83
4  COc1cc(C(=O)N2CCC(Nc3nc(N)c(C(=O)c4c(F)cccc4F)s3)CC2)cc(OC)c1OC [Example Q22]               48
5  CCOC(=O)C(=O)N1CCC(Nc2nc(N)c(C(=O)c3c(F)cccc3F)s2)CC1 [Example Q39]               25

Q: I would be grateful if you could share the reported HCT-116 % Inhibition at 0.25 μM for Nc1nc(NC2CCN(C(=O)c3ccccc3I)CC2)sc1C(=O)c1c(F)cccc1F [Example Q52] .
Ans: 24

Q: I would be grateful if you could share the reported HCT-116 % Inhibition at 0.25 μM for Nc1nc(NC2CCN(C(=O)Cc3ccccc3)CC2)sc1C(=O)c1c(F)cccc1F [Example Q43] .
Ans: 24

Q: I would be grateful if you could share the reported HCT-116 % Inhibition at 0.25 μM for COC(=O)C(=O)N1CCC(Nc2nc(N)c(C(=O)c3c(F)cccc3F)s2)CC1 [Example Q38] .
Ans: 21

---

TESTED_ON: human CDK4 and genetically truncated (1-264) cyclin D3 (Homo sapiens)
Sequence (P11802 whole entry, the tested form may be a part): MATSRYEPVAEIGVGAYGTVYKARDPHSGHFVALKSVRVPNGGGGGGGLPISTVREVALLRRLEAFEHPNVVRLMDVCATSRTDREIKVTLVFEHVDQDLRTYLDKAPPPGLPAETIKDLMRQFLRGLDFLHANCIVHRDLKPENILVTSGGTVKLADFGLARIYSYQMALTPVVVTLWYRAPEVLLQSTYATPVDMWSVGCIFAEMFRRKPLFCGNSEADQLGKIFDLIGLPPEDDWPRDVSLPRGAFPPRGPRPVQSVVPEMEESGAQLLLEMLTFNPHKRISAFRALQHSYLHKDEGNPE
Sequence (P30281 1-264 partner): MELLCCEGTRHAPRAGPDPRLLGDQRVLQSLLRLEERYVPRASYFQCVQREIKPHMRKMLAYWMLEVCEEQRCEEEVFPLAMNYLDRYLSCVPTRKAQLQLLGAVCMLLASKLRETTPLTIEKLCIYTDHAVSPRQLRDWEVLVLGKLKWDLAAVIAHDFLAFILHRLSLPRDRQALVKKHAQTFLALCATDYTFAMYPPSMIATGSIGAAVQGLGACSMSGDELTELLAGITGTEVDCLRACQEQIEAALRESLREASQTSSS
TEST_PROTOCOL: Inhibition of CDK4/Cyclin D Retinoblastoma Kinase Activity
REPORTED_CONDITIONS: apparent Ki, CDK4/truncated cyclin D3, Rb fragment substrate, 25 μM ATP
Experimental: Cyclin-dependent kinase activity was measured by quantifying the enzyme-catalyzed, time-dependent incorporation of radioactive phosphate from [^32P]ATP or [^33P]ATP into a protein substrate. […] The phosphorylated substrate was then captured on a nitrocellulose or phosphocellulose membrane using a 96-well filtration manifold, and unincorporated radioactivity was removed by repeated washing with 0.85% phosphoric acid. Radioactivity was quantified by exposing the dried membranes to a phosphorimager. […]
Structures can show the parent of a compound that is named as a salt.
METRIC_NAME: Ki (nM)

Below, each entry is followed by its recorded Ki result.
COMPOUND	Ki [nM]
Cc1cc(C)cc(C(=O)N2CCC(Nc3nc(N)c(C(=O)c4c(F)cccc4F)s3)CC2)c1	19
CC(=O)N(C)C1CCN(CCCS(=O)(=O)N2CCC(Nc3nc(N)c(C(=O)c4c(F)cccc4F)s3)CC2)C1 (stereo not shown)	1.5
Nc1nc(NC2CCN(C(=O)Oc3ccc(Cl)cc3)CC2)sc1C(=O)c1c(F)cccc1F	3.7

a: COc1ccc(Cl)cc1C(=O)N1CCC(Nc2nc(N)c(C(=O)c3c(F)cccc3F)s2)CC1
b: Nc1nc(NC2CCN(S(=O)(=O)c3ccc(-c4ccncc4)nc3)CC2)sc1C(=O)c1c(F)cccc1F
c: CN1CCCC(COc2ccc(S(=O)(=O)N3CCC(Nc4nc(N)c(C(=O)c5c(F)cccc5F)s4)CC3)cn2)C1 (stereo not shown) [Example H7, Trifluoroacetic Acid Salt]
Q: Ascending by Ki, please: list the compounds accordingly. Put the labels in the requested order and list them out.
Ans: c, b, a

---

TESTED_ON: CDK2/Cyclin A (Homo sapiens)
TEST_PROTOCOL: Inhibition of CDK2/Cyclin A Retinoblastoma Kinase Activity
Format: biochemical
REPORTED_CONDITIONS: at 0.03 μM
METRIC_NAME: CDK2 % Inhibition at 0.03 μM (%)

Below, each entry is followed by its recorded CDK2 % Inhibition at 0.03 μM result.
> print(dat)
                                   molecule  unit.spec  recorded.result
1  Nc1nc(NC2CCN(C(=O)[C@H](Cc3ccccc3)NS(=O)(=O)c3cccc4ccccc34)CC2)sc1C(=O)c1c(F)cccc1F          %                6
2  CCOc1ccccc1C(=O)N1CCC(Nc2nc(N)c(C(=O)c3c(F)cccc3F)s2)CC1 [Example R6]          %               14

P: Nc1nc(NC2CCN(C(=O)c3ccccc3F)CC2)sc1C(=O)c1c(F)cccc1F
Q: Cc1onc(-c2c(Cl)cccc2Cl)c1C(=O)N1CCC(Nc2nc(N)c(C(=O)c3c(F)cccc3F)s2)CC1
R: Nc1nc(NC2CCN(C(=O)C(c3ccccc3)c3ccccc3)CC2)sc1C(=O)c1c(F)cccc1F
S: Nc1nc(NC2CCN(C(=O)c3cccc(Cl)c3Cl)CC2)sc1C(=O)c1c(F)cccc1F
T: CC12CCC(C(=O)N3CCC(Nc4nc(N)c(C(=O)c5c(F)cccc5F)s4)CC3)(OC1=O)C2(C)C (stereo not shown)
Q: Ascending by CDK2 % Inhibition at 0.03 μM, please: list the molecules accordingly. Put the labels in the requested order and list them out.
Ans: R, S, P, T, Q
